system: SF-539; test: NCI tumour cell line growth inhibition, 48 h
The source made the active and inactive calls. No stated cut-off is given here; in the data, active = GI50 up to about 1.1 µM and inactive = higher.
Choose one outcome from this list and give only that: yes (1) for active, no (0) for inactive

Use these answered entries as a reference point.
compound | assayed system | cat
CCCOc1ccc2sc(NC(=O)c3cc([N+](=O)[O-])cc([N+](=O)[O-])c3)nc2c1 | SF-539 | no (0)
CCSc1nc(-c2cccs2)nc2ccc(I)cc12 | SF-539 | no (0)
O=C(O)C1=CCCc2ccc3ccccc3c21 | SF-539 | no (0)
Cc1nc2c(s/c(=N\N)n2-c2ccccc2)c(=O)n1C | SF-539 | no (0)
O/N=C1\C=Cc2nn(-c3ccccc3)nc2\C1=N/O | SF-539 | no (0)
O=C(Cl)c1cc([N+](=O)[O-])cc([N+](=O)[O-])c1 | SF-539 | no (0)
CC(=O)OCC1=C(C(=O)O)N2C(=O)C(NC(=O)CSc3ccncc3)C2SC1 (configuration not stated) | SF-539 | no (0)
CC(=O)/C=C1\Nc2ccc([N+](=O)[O-])cc2N\C1=C/C(C)=O | SF-539 | no (0)
CC(O)c1cc2c(s1)C(=O)c1sccc1C2=O (configuration not stated) | SF-539 | yes (1)
COc1cc2nc3n(c(=O)c2cc1OC)-c1ccc([N+](=O)[O-])cc1C3=O | SF-539 | no (0)

Look up the recorded call for `O=C(C/N=C(\CN(c1ccccc1)c1ccccc1)Oc1c(Cl)cc(Cl)cc1Cl)N1c2ccccc2Sc2ccccc21` in this test.
no (0)

Look up the recorded call for CCc1cccc(C(C)CC)c1/N=C(/NC(=O)c1ccccc1C(=O)N/C(=N/c1c(CC)cccc1C(C)CC)SC)SC (configuration not stated) in this test.
no (0)

Look up the recorded call for CC(C)(C)NC(=O)C12C3C4C1C1C2C3C41C(=O)NC(C)(C)C (configuration not stated) in this test.
no (0)

Look up the recorded call for `O=[N+]([O-])c1cccc2nc3ccccc3c(NCCCn3ccnc3[N+](=O)[O-])c12` in this test.
yes (1)

Look up the recorded call for `C=CCOC(=O)C[C@H](NC(=O)[C@H](Cc1ccc(O)cc1)NCC(F)(F)F)C(=O)OCC=C` in this test.
no (0)

Look up the recorded call for `CC(=O)NCCSC(=O)c1ccccc1` in this test.
yes (1)

Look up the recorded call for COC1OC(COS(=O)(=O)c2ccc(C)cc2)C(O)C(OS(=O)(=O)c2ccc(C)cc2)C1OS(=O)(=O)c1ccc(C)cc1 (configuration not stated) in this test.
no (0)
